# MEASURED TARGET: T1, recombinant human CD127 extracellular domain (CD127 ECD) (human, UniProt P16871 21-219)
# T1 construct: The assays only say 'recombinant human CD127 ECD'; also called IL-7Rα EDC; IL-7Rα
# T1 chain: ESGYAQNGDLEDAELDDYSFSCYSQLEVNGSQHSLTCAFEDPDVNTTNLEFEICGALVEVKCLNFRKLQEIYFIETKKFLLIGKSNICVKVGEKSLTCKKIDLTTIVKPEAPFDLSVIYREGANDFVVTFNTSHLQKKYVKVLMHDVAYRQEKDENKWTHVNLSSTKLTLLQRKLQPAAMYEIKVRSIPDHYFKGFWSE
# METHOD NOTES: SPR, Biacore T100, 25° C.; antibody captured on rabbit anti-mouse IgG, CD127 ECD as analyte

>  <BINDER>
mAb 6C5 (murine anti-human CD127 monoclonal antibody) (antibody, mouse IgG1, V domains shown, also called antibody 6C5) VH: EVKLLESGGGLVQPGGSLKLSCAASGFAFSAYWMSWVRQAPGKGLEWIGEINPDSSTINCTPSLKDKFIISRDNAKNTLSLQMNKVRSEDTALYYCARRLRPFWYFDVWGAGTTVTVSS VL: DVLMTQTPLSLPVSLGDQASISCRSSQSIVQSNGNTYLEWYLQKPGQSPKLLIYKVSNRFSGVPDRFSGSGSGTDFTLKISRVEAEDLGVYYCFQGSHVPRTFGGGTKLEIK

>  <Kd (nM)>
24.4

$$$$
